Data origin, for the record: patent US12662489B2

Consider the following compounds; for each one, report its IC50.
# assaySystem: MTHFD2 recombinant human enzyme (Homo sapiens)
# Sequence (P13995 36-350): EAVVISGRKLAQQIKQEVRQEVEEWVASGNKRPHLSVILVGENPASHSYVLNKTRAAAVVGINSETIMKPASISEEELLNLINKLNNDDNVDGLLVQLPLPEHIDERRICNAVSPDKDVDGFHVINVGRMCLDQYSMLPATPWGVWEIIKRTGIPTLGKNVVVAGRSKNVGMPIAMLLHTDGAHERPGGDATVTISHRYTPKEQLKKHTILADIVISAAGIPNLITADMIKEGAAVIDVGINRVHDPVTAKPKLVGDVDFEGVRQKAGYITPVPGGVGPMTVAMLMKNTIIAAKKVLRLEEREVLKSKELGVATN
# testDetails: MTHFD2 inhibition assay (NAD(P)H-Glo luminescence)

(Q) Given the entry COC[C@H]1CN(c2ccc3c4c(c(=O)oc3c2C)CN(C(=O)c2ccc(C(=O)NS(=O)(=O)N(C)C(C)C)c(O[C@@H]3C[C@@H]5C[C@@H]5C3)c2F)CC4)CCN1C , what IC50 was observed with MTHFD2 recombinant human enzyme (Homo sapiens)?
(A) 1 to 10 nM

(Q) Notebook entry, MTHFD2 recombinant human enzyme (Homo sapiens) assay: IC50 of COC[C@H]1CN(c2ccc3c4c(c(=O)oc3c2C)CN(C(=O)c2cc(Cl)c(C(=O)NS(=O)(=O)N3CCCC3)c(N3CC5CC5C3)c2)CC4)CCN1C (some centres unmarked) = ?
(A) 100 to 1000 nM

(Q) For the record COC[C@H]1CN(c2cc(C)c3c4c(c(=O)oc3c2C)CN(C(=O)c2cc(OC3CCCC3)c(C(=O)NS(=O)(=O)N3CCCC3)c(C(F)(F)F)c2)CC4)CCN1C , what value of IC50 is listed for MTHFD2 recombinant human enzyme (Homo sapiens)?
(A) 10 to 100 nM

(Q) Any idea what IC50 came out for COC[C@H]1CN(c2cc(C)c3c4c(c(=O)oc3c2C)CN(C(=O)c2ccc(C(=O)NS(=O)(=O)C3(C)CC3)c(OC3C[C@@H]5C[C@@H]5C3)c2F)CC4)CCN1C (some centres unmarked) on MTHFD2 recombinant human enzyme (Homo sapiens)?
(A) 1 to 10 nM

(Q) Give recorded IC50 with MTHFD2 recombinant human enzyme (Homo sapiens) for the following compound: COC[C@H]1CN(c2cc(C)c3c4c(c(=O)oc3c2C)CN(C(=O)c2ccc(C(=O)NS(=O)(=O)N3CCCC3)cc2Cl)CC4)CCN1C
(A) 100 to 1000 nM
